- test_system: Mitogen-activated protein kinase 14 (Homo sapiens, UniProt Q16539)
- Sequence (Q16539 whole entry): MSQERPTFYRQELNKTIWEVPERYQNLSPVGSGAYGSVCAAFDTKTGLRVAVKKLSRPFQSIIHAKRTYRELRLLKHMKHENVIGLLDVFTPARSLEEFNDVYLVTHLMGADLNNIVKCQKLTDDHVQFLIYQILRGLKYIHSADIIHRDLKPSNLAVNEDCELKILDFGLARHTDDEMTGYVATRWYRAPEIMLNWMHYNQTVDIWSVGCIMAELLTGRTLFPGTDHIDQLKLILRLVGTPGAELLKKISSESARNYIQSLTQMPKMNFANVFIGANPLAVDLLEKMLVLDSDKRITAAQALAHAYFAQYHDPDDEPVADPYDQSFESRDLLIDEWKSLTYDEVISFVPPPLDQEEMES
- measurement_protocol: Inhibition of p38 alpha MAPK in human whole blood assessed as suppression of LPS-induced TNF-alpha release by immunosorbent non-radioactive enzyme assay relative to SB203580
- Format: tissue-based
endpoint_name: Ratio IC50

Consider the worked cases shown below.
* CC(C)[C@@H](C)Nc1cc(-c2[nH]c([S+](C)[O-])nc2-c2ccc(F)cc2)ccn1 (mixture of isomers) | 0.92
* C[C@H](Nc1cc(-c2[nH]c([S@@+](C)[O-])nc2-c2ccc(F)cc2)ccn1)c1ccccc1 | 0.16

Exam item: State, for Mitogen-activated protein kinase 14 (Homo sapiens, UniProt Q16539), measured Ratio IC50 of the compound listed here: C[S@@+]([O-])c1nc(-c2ccc(F)cc2)c(-c2ccnc(NC(=O)Cc3ccc(F)cc3)c2)[nH]1
Marked response: 0.27

----------
- test_system: Mitogen-activated protein kinase 14 (Homo sapiens, UniProt Q16539)
- measurement_protocol: Inhibition of p38 alpha MAPK in human whole blood assessed as phosphorylation of ATF-2 by immunosorbent non-radioactive enzyme assay relative to SB203580
- Format: tissue-based
endpoint_name: Ratio IC50
Form field (numeric): enter value without unit.

Consider the worked cases shown below.
* CC(C)[C@H](C)Nc1cc(-c2[nH]c([S+](C)[O-])nc2-c2ccc(F)cc2)ccn1 (mixture of isomers) | 3.41
* C[C@H](Nc1cc(-c2[nH]c([S@+](C)[O-])nc2-c2ccc(F)cc2)ccn1)c1ccccc1 | 0.62
* C[S@@+]([O-])c1nc(-c2ccc(F)cc2)c(-c2ccnc(NC3CCCCC3)c2)[nH]1 | 2.55
* CC(C)[C@H](C)Nc1cc(-c2[nH]c([S@+](C)[O-])nc2-c2ccc(F)cc2)ccn1 | 2.15
* CC(=O)Nc1cc(-c2c(-c3ccc(F)cc3)nc([S+](C)[O-])n2C)ccn1 (racemic) | 0.042

Exam item: Give the measured Ratio IC50 for CC(=O)Nc1cc(-c2c(-c3ccc(F)cc3)nc([S@@+](C)[O-])n2C)ccn1
Marked response: 0.035

Exam item: Give the measured Ratio IC50 for C[S@+]([O-])c1nc(-c2ccc(F)cc2)c(-c2ccnc(NC3CCCCC3)c2)[nH]1
Marked response: 1.48
